# assay_remarks: Toxicity in oral administration to rats
# test_parameters: rat, in vivo, read-out: 50% lethality (LD50)

- compound: "COc1cc(C[C@H](C)[C@H](C)Cc2ccc3c(c2)OCO3)ccc1O (single isomer, unassigned)"
  LD50: "> 2000 mg/kg"
